- Tested on: P. falciparum CQ-sensitive (Pf3D7)
- assay-protocol: SYBR Green I assay, asynchronous cultures, CQ-sensitive clone
- Type: cell-based
- reported-conditions: Plasmodium falciparum, 72 h, read-out: Pf3D7 IC50, nM (±SD)
measured-parameter: IC50

Request: Param item = CCN(CC)CCCC(C)Nc1ccnc2cc(Cl)ccc12 (stereo not shown) [Chloroquine, reference compound] ; retrieve measured IC50.
Result: 32.3 nM

====

- assay-protocol: In vitro cytotoxicity, HepG2
- Type: cell-based
- reported-conditions: human, HepG2 cells; read-out: CC50 (50% cell toxicity)
measured-parameter: CC50

Request: Given NC(Cc1ccccc1)C(O)CN1CCN(Cc2ccc(C(F)(F)F)cc2)CC1 (stereo not shown) [Compound I] , state its recorded CC50.
Result: 1350 µM

FYI, the data here is from patent US11485714B2.
